test system: LXRa homodimer (NR concentration 270 nM); assay: PBM binding z-score (relative to random genomic background probes); higher = stronger binding; sequences stand for … in GC…GCGATTGACAGCGTAGAATGAAGG
ASSAY ENDPOINT: PBM binding z-score

TTACCAAGTTGAAAGGTCGTTGATGCACGCCTTG
0.48

Reported PBM binding z-score for `CCGACTGGGGCAGAAATGTTACCATACCATCCGG` was -0.171

Noted for `TCTCGGAGGACACGACAGGTCAGAGCTCGACATC` : its PBM binding z-score reads 0.823

Entry `TCATATAGCTAAATGCTAGGTGAAAGTCCGATCT` — recorded PBM binding z-score = -0.0142

Short answer for `GCAGACAGGTGAAACGCAGGGAACTCAGGGTGGC` : PBM binding z-score was -0.294

Measured PBM binding z-score, `AGTCAAAGTTCGGGACGAGGTAACGTAAAGCACG` : -0.198

====

system: PPARg:RXRa (NR concentration 180 nM, RXRa partner concentration 90 nM); assay: PBM binding z-score (relative to random genomic background probes); higher = stronger binding; sequences stand for … in GC…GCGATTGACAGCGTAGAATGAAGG
ASSAY ENDPOINT: PBM binding z-score
Answer as a number with no unit attached.

Entry `CCTCGGAGGACAGAAAGTCAGAGCTGTCCGCTTT` : PBM binding z-score on PPARg:RXRa (NR concentration 180 nM, RXRa partner concentration 90 nM) = -0.796

====

tested on: VDR homodimer (NR concentration 270 nM); assay: PBM binding z-score (relative to random genomic background probes); higher = stronger binding; sequences stand for … in GC…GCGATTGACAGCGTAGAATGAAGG
PBM binding z-score vs 0.2: at or above is 1 (yes), below is 0 (no).

Some solved entries appear below for comparison.
CCTGCTAGGTCATGGCCAGCTAATCTACAGTATG
0 (no)
GCTAGTTGGTCAGAAAAAGGTCACACACCGGTCG
1 (yes)
ACAGACATGTGATGAAGGTAACTCAGGCTATCAT
0 (no)

# bool: PBM binding z-score of `ATATGTCGGTTATCGGGTCATTCAGTTTGCGCAT` >= 0.2
1 (yes)

Tell me whether PBM binding z-score is at least 0.2 here: `CCTACTGGGCCACGGTCATTGATCAGTCAAAGCA`
0 (no)

In plain terms: is recorded PBM binding z-score at least 0.2 for `CAAACTAGGTCAAGAGGTCAAGGTCCGCTTCCCG` ?
1 (yes)

Quick check, PBM binding z-score >= 0.2? `ACCGACAGGTGAGTGAAGGTAACTCAGCTGGACG`
0 (no)

Tell me whether PBM binding z-score is at least 0.2 here: `AGTAGTTGGTCAGCTGAGGTCACACACAATTCGG`
1 (yes)

====

system: RARb homodimer (NR concentration 270 nM); assay: PBM binding z-score (relative to random genomic background probes); higher = stronger binding; sequences stand for … in GC…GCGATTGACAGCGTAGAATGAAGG
# PBM binding z-score annotations
Reply: number alone, nothing else.

Reference set (4 entries):
TCATATAGGTAATACATGTGAAAGTCGGCATCTA
-0.0768
CCTCGGAGGACAACAGGAGGTCAGTGCTGCCAGA
3.56
GCTATTAGTTGAAGGGGCAACCGAATGATTCTCG
0.855
CCGACTGGAGCAAAGGTTACCATACTCAGTACGA
2.17

Reported PBM binding z-score of `ACAGACAGGTGAGTAAAGGTAACTCAGCTGGACG` : 0.365

# PBM binding z-score of `AATACTGGGTCATCGTAGGCCAGAGTACGCACAG` = 3.24
